System: Italian ryegrass
ASSAY PROCEDURE: Test C pre-/postemergence test
Type: in vivo, Lolium multiflorum
RUN PARAMETERS: 125 g ai/ha, preemergence; scale 0 (no effect) to 100 (complete control)
Could you please report measured Ryegrass, Italian plant response rating for the items listed next?
Numbers only.

[
  {
    "COMPOUND": "CCn1nc(C(F)(F)F)c(C[S+]([O-])c2cccc[n+]2[O-])c1OCC(F)(F)F (racemic)",
    "READOUT TYPE": "Ryegrass, Italian plant response rating",
    "READOUT VALUE": 100
  },
  {
    "COMPOUND": "C#CCOc1c(CS(=O)(=O)c2cccc[n+]2[O-])c(C(F)(F)F)nn1C",
    "READOUT TYPE": "Ryegrass, Italian plant response rating",
    "READOUT VALUE": 55
  },
  {
    "COMPOUND": "Cn1nc(C(F)(F)F)c(CS(=O)(=O)c2cccc[n+]2[O-])c1OCC(F)F",
    "READOUT TYPE": "Ryegrass, Italian plant response rating",
    "READOUT VALUE": 50
  },
  {
    "COMPOUND": "Cn1nc(C(F)(F)F)c(C(Cl)S(=O)(=O)c2cccc[n+]2[O-])c1OCC(F)(F)F (racemic)",
    "READOUT TYPE": "Ryegrass, Italian plant response rating",
    "READOUT VALUE": 100
  },
  {
    "COMPOUND": "C#CCOc1c(C[S+]([O-])c2cccc[n+]2[O-])c(C(F)(F)F)nn1C (centres unmarked)",
    "READOUT TYPE": "Ryegrass, Italian plant response rating",
    "READOUT VALUE": 70
  }
]

Dear colleague, could you please provide Ryegrass, Italian plant response rating for the compounds listed below?
1. Cn1nc(C(F)(F)F)c(C[S+]([O-])c2cccc[n+]2[O-])c1OCC(F)F (centres unmarked)
2. CCn1nc(C(F)(F)F)c(CS(=O)(=O)c2cccc[n+]2[O-])c1OCC(F)(F)F
3. CC(C)c1cc[n+]([O-])c([S+]([O-])Cc2c(C(F)(F)F)nn(C)c2OC(F)F)c1 (centres unmarked)

[100, 60, 0]

----------
Could you please report measured Plant response rating, Wheat for the items listed next?
Tested on: wheat
ASSAY PROCEDURE: Test A pre-/postemergence greenhouse test
Type: in vivo, Triticum aestivum
RUN PARAMETERS: Postemergence, 125 g ai/ha; 0 to 100 scale where 0 is no effect and 100 is complete control
Answers are plain numbers.

A selection of reference data follows.
[
  {
    "MOLECULE": "Cn1nc(C(F)(F)F)c(C[S+]([O-])c2cc(C3CC3)cc[n+]2[O-])c1OCC(F)(F)F (centres unmarked) [Compound 121]",
    "Plant response rating, Wheat": 30
  },
  {
    "MOLECULE": "Cn1nc(C(F)(F)C(F)(F)F)c(C[S+]([O-])c2cccc[n+]2[O-])c1OCC(F)(F)F (centres unmarked) [Compound 79]",
    "Plant response rating, Wheat": 50
  },
  {
    "MOLECULE": "Cn1nc(C(F)(F)F)c(C(Cl)S(=O)(=O)c2cccc[n+]2[O-])c1OC(F)F (centres unmarked) [Compound 51]",
    "Plant response rating, Wheat": 40
  },
  {
    "MOLECULE": "[O-][n+]1cc(Cl)ccc1[S+]([O-])Cc1c(C(F)(F)F)nn(CC(F)(F)F)c1Cl (centres unmarked) [Compound 47]",
    "Plant response rating, Wheat": 50
  },
  {
    "MOLECULE": "Cn1nc(C(F)(F)F)c(C[S+]([O-])c2ccc(Cl)c[n+]2[O-])c1OCC(F)(F)C(F)(F)F (centres unmarked) [Compound 89]",
    "Plant response rating, Wheat": 60
  },
  {
    "MOLECULE": "Cn1nc(C(F)(F)F)c(CS(=O)(=O)c2cccc[n+]2[O-])c1OCC(F)(F)C(F)(F)F [Compound 83]",
    "Plant response rating, Wheat": 0
  }
]

Dear colleague, could you please provide Plant response rating, Wheat for the molecules listed below?
1. Cn1nc(C(F)(F)F)c(C[S+]([O-])c2cc(Cl)cc[n+]2[O-])c1OCC(F)(F)F (centres unmarked) [Compound 68]
2. Cn1nc(C(F)(F)F)c(CS(=O)(=O)c2ccc(F)c[n+]2[O-])c1OC(F)F [Compound 107]

1. 50
2. 0
